- Test system: SW-620 colon
- assay summary: NCI-60 one-dose screen, 48 h
- details: 10 µM unless noted
The panel holds about 83,000 compounds, 20% with a hit somewhere; the sample as a whole holds those more often. Active and inactive are the calls of the source. Rule for the calls: active = growth percent below 10; inactive = the rest.
Response enum: 1 (active), -1 (inactive)

What did this assay record as the result for "COC(=O)[C@@H]1CCCN1C(=O)[C@H]1CCCN1C(=O)[C@@H](Cc1c[nH]c2ccccc12)NC(=S)Nc1cc(C(F)(F)F)cc(C(F)(F)F)c1" ? -1

Given "COC(=O)c1c2c(c(C)[n+]([O-])c1C)C(=O)C=C(NCc1ccccc1)C2=O" , state the outcome it received in this test. 1

Could you please tell me the result logged for NC(CCc1nc2ccccc2c(=O)[nH]1)C(=O)O (stereo not given) in this assay? -1

Called result for C1=CC2(C=C1)OC21CCC2(C=CC3(C2)OC3C2CCCCC2)CC1 (stereo not given) -1

Recorded call for COc1ccccc1N1CCN(C(CNS(=O)(=O)c2ccc(Cl)cc2)c2cccnc2)CC1 (stereo not given) ? -1

Give the logged outcome of this assay for the following compound: "COC(=O)c1ccc(NC(=O)CSc2nc3ccccc3c(=O)n2-c2ccccc2)cc1" -1

Kindly provide the recorded test outcome for the following compound: "COc1cc(NC(=O)CCSc2nc3ccccc3c(=O)n2CCc2ccccn2)cc(OC)c1OC" -1

Please indicate how the test categorized "CC(=O)c1ccc(NC(=O)Nc2ccc(S(=O)(=O)Nc3ccc(Cl)nn3)cc2)cc1" . -1

For "Clc1ccc(COc2ccc(Nc3ncnc4onc(-c5ccccc5)c34)cc2)cc1" , what call appears in the results of this test? -1

Tell me the assay call for "COc1cc(OC)cc(N2C(=O)N(Cc3ccc(C(C)(C)C)cc3)c3ccccc3S2(=O)=O)c1" please. -1

What classification did COc1ccc(N2C(=O)CC(c3cc(OC)c(OC)c(OC)c3)C3C2=NC(=O)N3C)cc1 (stereo not given) end up with in this test? -1

Could you please tell me the result logged for "COc1cc2nc(-c3cnc(N(C)C)nc3)nc(NC3CCN(Cc4ccccc4)CC3)c2cc1OC" in this assay? 1

Query: recorded result category for "C[C@@H](C(=O)NCCCC#Cc1cnc(Nc2ccc(C#N)cc2)nc1NC1CC1)N(C)C(=O)/C=C/CN(C)C" in this test -1

Which outcome was entered for the compound "COc1ccc(-c2nocc2-c2cccs2)cc1" in this test? -1

Which outcome was assigned to COc1ccc(/C=c2\sc3n(c2=O)NC2C(N=3)N(C)C(=O)N2C)cc1 (stereo not given) in this test? -1

# fetch the recorded call for CN1C(=O)N(C)C2Nn3c(s/c(=C\c4ccc(Cl)cc4Cl)c3=O)=NC21 (stereo not given) here -1

Please state the recorded outcome for this compound: "O=C1/C(=C/c2ccc(O)cc2)COc2ccc(O)c(O)c21" -1

Kindly provide the recorded test outcome for the following compound: "O=C1Nc2ccccc2/C1=C/c1cccs1" -1

Field: outcome | Entry: "COc1ccc(/C=C/C(=O)c2c(C)nc3ccccc3c2/C=C/c2ccccc2)cc1O" -1

Record request — test call for "Cc1ccc(C)c(-c2csc(Nc3ccc(C)c(C)c3)n2)c1" 1

Dear colleague, could you share the recorded outcome for "COc1cc(/C(C#N)=C/c2nc3c(N4CCOCC4)nc(Cl)nc3n2C)cc(OC)c1OC" when you have a moment? -1

Each compound tested received a call. Report the one for "CCOC(=O)c1c2c(c(C)n1Cc1ccc(OC)cc1)-c1oncc1CC2" . -1

# lookup: test call for "O=C(Nc1ccc(F)cc1F)c1cc(Br)ccc1O" -1

Fill in: this test's call for "COc1cc(C=C2C(=O)N(C)C(=O)N(C)C2=O)cc(CN2CCCCC2)c1O" is ___ -1

How did this test come out for "COc1cc(/C=C2\CN(C)C/C(=C\c3cc(CN4CCCC4)c(O)c(OC)c3)C2=O)cc(CN2CCCC2)c1O" ? -1

What did this assay record as the result for "COc1ccc(-c2cc(=O)c3c(OC)c4ccoc4c(/C=C/C=O)c3o2)cc1" ? -1

Outcome? "c1ccc2cc3c(Nc4ccc(N5CCOCC5)cc4)ccnc3cc2c1" -1

Which outcome was entered for the compound CCCCC1CCc2cccc3c(SCC(=O)N(C)c4ccc(Cl)cc4)cc[n+]1c23 (stereo not given) in this test? -1

For "Cn1cc(-c2ccc3ncc(-c4ccc(CC(=O)Nc5cc(C(C)(C)C)no5)cc4)nc3c2)cn1" , what call appears in the results of this test? -1

Please indicate how the test categorized C=CCN1C(=O)/C(=c2\sc3n(c2=O)NC2C(N=3)N(CC)C(=O)N2CC)c2ccccc21 (stereo not given) . -1

Entry "O=C1c2ccccc2C(=O)c2c1ccc1[nH]c(CCl)nc21" : call = ? 1

Look up the recorded call for "Cc1ccc2c(n1)C(=O)C(Oc1ccc(Br)cc1)=CC2=O" in this test. -1

Record request — test call for "O=C(Nc1ccc(N2CCNCC2)cn1)c1[nH]ncc1Nc1ncnc2sc3c(c12)CCC3" 1

// return assay outcome for "CCOC(=O)c1sc(-c2ccc(OS(=O)(=O)c3ccc(Br)s3)c(C=O)c2)nc1C" 1

Could you check what this test reported for "Nc1no[n+]([O-])c1-c1nnc2c(n1)-c1ccccc1C2=O" ? -1

Which result was noted for this compound in the test: O=S1(=O)N(Cc2ccccc2)[C@@H](Cc2ccccc2)C2O[C@H]2[C@H](Cc2ccccc2)N1Cc1ccccc1 (stereo not given in full) -1

Returns: the outcome recorded for CN1C(=O)N(C)C2C1NN=c1s/c(=C\c3ccc([N+](=O)[O-])cc3)c(=O)n12 (stereo not given) in this assay. -1

Hey, what did the test say about "O=C1C(Cl)=C(NCc2ccco2)C(=O)c2ccccc21" ? -1

Record request — test call for O=C(NCc1ccco1)C1CN(c2ccc(Cl)cc2)N(c2ccc(Cl)cc2)C1=O (stereo not given) -1

Tell me the assay call for "COc1nccc2cc3c(=O)n4c(cc5ccccc54)c(=O)n3c12" please. -1

###

- System: OVCAR-5 ovarian
- assay summary: NCI-60 one-dose screen, 48 h (100 = growth as untreated, 0 = no growth, -100 = all killed)
- details: 10 µM unless noted
Compounds without any hit were thinned out: in the full panel of roughly 83,000, 20% have a hit. The source made the active and inactive calls. How the source made its calls: active means growth percent below 10; inactive means the rest.
I'd be grateful if you could share measured growth for these entries.

Find growth (OVCAR-5 ovarian) for the entry O=C(NC1C(O)OC(CO)C(O)C1O)NS(=O)(=O)c1ccc(Cl)cc1 (stereo not given) 99.7% (inactive)

// map "O=C(Nc1ccc(F)cc1F)c1cc(Br)ccc1O" to recorded growth (system: OVCAR-5 ovarian) -7.85% (active)

Hi! What's the reported growth for "O=C(Nc1ccc(F)c(Cl)c1)Nc1ccc(Cl)c(Cl)c1" on OVCAR-5 ovarian? 114% (inactive)

Query the reported growth for OVCAR-5 ovarian; item: "Nc1ccc(-c2nc3cc(Oc4ccc(Oc5ccc6[nH]c(-c7ccc(N)cc7)nc6c5)cc4)ccc3[nH]2)cc1" 113% (inactive)

Form: Entry = CCCCC1CCc2cccc3c(SCC(=O)N(C)c4ccc(Cl)cc4)cc[n+]1c23 (stereo not given) | System = OVCAR-5 ovarian | growth = ____ 116% (inactive)

Tell me reported growth for "c1ccc2c(c1)oc1cc3sccc3nc12" , tested with OVCAR-5 ovarian. 109% (inactive)

Recall the recorded growth for "COc1ccc(/C=C/C(=O)c2c(C)nc3ccccc3c2/C=C/c2ccccc2)cc1O" with OVCAR-5 ovarian and state it. 17.2% (inactive)

Return growth measured with OVCAR-5 ovarian given this molecule: COc1cc(C2C3=C(COC3=O)N(CCO)c3cc4c(cc32)CCC4)cc(OC)c1O (stereo not given) 56.6% (inactive)

Lab request: please report growth under test system OVCAR-5 ovarian for "CCCCCCc1cc2cc(-c3csc(/C=C/c4ccccc4)n3)c(=O)oc2cc1O" 81.7% (inactive)

Find growth (OVCAR-5 ovarian) for the entry "Cn1cc([C@@H]2Nc3ccc4[nH]ncc4c3[C@H]3[C@H]4CCC(C4)[C@H]32)c(C(F)(F)F)n1" 79.4% (inactive)

What is its growth for OVCAR-5 ovarian? Entry: COc1ccc(-c2nsc3c2NC(=O)CC3c2cccc(OC)c2)cc1 (stereo not given) 52.9% (inactive)

Recorded growth for "COc1ccc2sc3c(NCCCN)nc4ccccc4c3c(=O)c2c1" with OVCAR-5 ovarian, please? 82.8% (inactive)

Item "CCn1c(SCC(=O)Nc2cc(C(F)(F)F)ccc2Cl)nc2ccccc2c1=O" with OVCAR-5 ovarian - growth? 78.3% (inactive)

Record lookup: for OVCAR-5 ovarian, what growth belongs to "COC(=O)/C(CCC=C(C)C)=C1\[C@@H](OC(C)=O)C[C@@]2(C)[C@H]1C[C@@H](O)[C@H]1[C@@]3(C)CC[C@H](NCCO)[C@@H](C)[C@@H]3CC[C@@]12C" ? 104% (inactive)

Query growth on OVCAR-5 ovarian for Nc1ccn(C2O[C@H](CO)[C@@H](O)[C@H]2O)c(=O)n1 (stereo not given in full) 104% (inactive)

// lookup growth | system=OVCAR-5 ovarian | key= "COc1ccc(/C(C#N)=C/c2nc3c(N4CCOCC4)nc(Cl)nc3n2C)cc1OC" 33.3% (inactive)

Request: growth, test system OVCAR-5 ovarian, entry CCCN1C(=O)N(CCC)C2C1NN=c1s/c(=C3\C(=O)N(C(C)C)c4ccccc43)c(=O)n12 (stereo not given) 76% (inactive)

Lab note: need growth with OVCAR-5 ovarian for entry "COC(=O)/C(=C\c1c(-c2ccccc2)[nH]c2ccccc12)S(C)(=O)=O" , please look it up. 83.5% (inactive)

Recorded growth for "O=c1c(-c2nc3ccccc3[nH]2)cc2ccccc2n1Cc1cn(Cc2ccccc2Cl)nn1" with OVCAR-5 ovarian, please? 78.2% (inactive)

growth of "C1CCN(c2nc(N3CCCCC3)nc(N3CCOCC3)n2)CC1" on OVCAR-5 ovarian? 122% (inactive)

Source listed as PubChem BioAssay (NCI).
